All figures here come from ChEMBL document CHEMBL1122803.

test system: Plasmodium berghei; experiment: Antimalarial activity as change in MST against drug-sensitive Plasmodium berghei infected mice (Mus musculus) at 160 mg/kg subcutaneous dose after 72h; assay type: functional
Reported Property: Delta MST (days)
Return type: number; implicit unit days.

GET /value?item= Nc1nc(N)c2cc(S(=O)(=O)Nc3cccc(Br)c3)ccc2n1 &field=Delta MST returns 0.5

GET /value?item= Nc1nc(N)c2cc(S(=O)(=O)Nc3ccc(Cl)c(Cl)c3)ccc2n1 &field=Delta MST returns 10.1

GET /value?item= CCN(CC)CCN(C)S(=O)(=O)c1ccc2nc(N)nc(N)c2c1 &field=Delta MST returns 0.3

GET /value?item= Nc1nc(N)c2cc(S(=O)(=O)N3CCSCC3)ccc2n1 &field=Delta MST returns 8.3

GET /value?item= Nc1nc(N)c2cc(S(=O)(=O)N3CCCC3)ccc2n1 &field=Delta MST returns 8.7

GET /value?item= Nc1nc(N)c2cc(S(=O)(=O)N3CCCCC3)ccc2n1 &field=Delta MST returns 10.2

GET /value?item= Nc1nc(N)c2cc(S(=O)(=O)N(CCO)CCO)ccc2n1 &field=Delta MST returns 1.3

GET /value?item= Nc1nc(N)c2cc(S(N)(=O)=O)ccc2n1 &field=Delta MST returns 0.3

GET /value?item= Nc1nc(N)c2cc(S(=O)(=O)Nc3ccc(Cl)cc3)ccc2n1 &field=Delta MST returns 9.3

GET /value?item= CC(C)N(C)S(=O)(=O)c1ccc2nc(N)nc(N)c2c1 &field=Delta MST returns 7.3

GET /value?item= CN(Cc1ccc(Cl)c(Cl)c1)S(=O)(=O)c1ccc2nc(N)nc(N)c2c1 &field=Delta MST returns 0.5

GET /value?item= CN(c1ccccc1)S(=O)(=O)c1ccc2nc(N)nc(N)c2c1 &field=Delta MST returns 8.3

GET /value?item= CN1CCN(S(=O)(=O)c2ccc3nc(N)nc(N)c3c2)CC1 &field=Delta MST returns 4.4

GET /value?item= CN(C)S(=O)(=O)c1ccc2nc(N)nc(N)c2c1Cl &field=Delta MST returns 17

GET /value?item= CN(c1cccc(Cl)c1)S(=O)(=O)c1ccc2nc(N)nc(N)c2c1 &field=Delta MST returns 4.5

GET /value?item= Nc1nc(N)c2cc(S(=O)(=O)N3CCC(N4CCCCC4)CC3)ccc2n1 &field=Delta MST returns 0.7

GET /value?item= Nc1nc(N)c2cc(S(=O)(=O)N3CCCCC3Cc3ccccc3)ccc2n1 (stereo unspecified) &field=Delta MST returns 0.3

GET /value?item= CCOC(=O)N1CCN(S(=O)(=O)c2ccc3nc(N)nc(N)c3c2)CC1 &field=Delta MST returns 4.1

GET /value?item= Nc1nc(N)c2cc(S(=O)(=O)Nc3ccc4ccccc4c3)ccc2n1 &field=Delta MST returns 1.1

GET /value?item= CCN(CC)S(=O)(=O)c1ccc2nc(N)nc(N)c2c1 &field=Delta MST returns 9.4

GET /value?item= CN(C)S(=O)(=O)c1ccc2nc(N)nc(N)c2c1 &field=Delta MST returns 15.9

###

test system: Escherichia coli; assay: Compound was tested in vitro against Escherichia coli Vogel. by gradient-plate test.; type: functional
Reported Property: MIC

GET /value?item= CCN(CC)CCN(C)S(=O)(=O)c1ccc2nc(N)nc(N)c2c1 &field=MIC returns > 25 µg/mL

GET /value?item= CN(C)S(=O)(=O)c1ccc2nc(N)nc(N)c2c1Cl &field=MIC returns 5 µg/mL

GET /value?item= Nc1nc(N)c2cc(S(=O)(=O)N3CCc4ccccc4C3)ccc2n1 &field=MIC returns > 25 µg/mL

GET /value?item= Nc1nc(N)c2cc(S(=O)(=O)N3CCCCC3)ccc2n1 &field=MIC returns < 0.25 µg/mL
